TARGET SYSTEM: kinases (Homo sapiens, UniProt P00519, F317I)
Construct: purchased Eurofins/DiscoveRx; host or cells: E. coli BL21-derived host (T7 phage display) for most kinases; HEK-293 for the rest
MEASUREMENT NOTES: KINOMEscan kinase binding assay (Eurofins/DiscoveRx), % Ctrl
CONDITION INFO: 1 μM; ABL1(F317I)-nonphosphorylated
QUANTITY KIND: % Ctrl, ABL1(F317I)-nonphosphorylated (% Ctrl)
Reply with just the number (in % Ctrl).

Sample answers from the record:
| SMILES RECORD | DISPLAY UNIT | % Ctrl, ABL1(F317I)-nonphosphorylated |
| --- | --- | --- |
| Cc1cc2c([nH]1)/C=C1\C(=O)Nc3cc(Cl)c(cc31)OCCO[C@@H](C(=O)N(C)C)CN(C)C2=O | % Ctrl | 95 |
| Cc1cc2c([nH]1)/C=C1\C(=O)Nc3ccc(cc31)OCCOCCNC2=O | % Ctrl | 94 |
| Cc1cc2c([nH]1)/C=C1\C(=O)Nc3cc(Cl)c(cc31)OCCO[C@@H](C(=O)NC1CNC1)CN(C)C2=O | % Ctrl | 93 |

Okay, next one:
Entry `Cc1cc2c([nH]1)/C=C1\C(=O)Nc3ccc(cc31)-c1ccnn1CCNCCNC2=O` has what % Ctrl, ABL1(F317I)-nonphosphorylated?
68

* * *

TARGET SYSTEM: kinases (Homo sapiens)
Construct: purchased Eurofins/DiscoveRx; host or cells: E. coli BL21-derived host (T7 phage display) for most kinases; HEK-293 for the rest
MEASUREMENT NOTES: KINOMEscan kinase binding assay (Eurofins/DiscoveRx), % Ctrl
CONDITION INFO: target EGFR; 1 μM
Experimental: Kinase binding assays were performed at Eurofins/DiscoveRx using the general KINOMEscan Protocol (Fabian, M. A. et al., “A small molecule-kinase interaction map for clinical kinase inhibitors,” Nat. Biotechnol. 2005, 23(3):329-36). For most assays, kinase-tagged T7 phage strains were prepared in an E. coli host derived from the BL21 strain. […] The kinase concentration in the eluates was measured by qPCR. […]
QUANTITY KIND: % Ctrl, EGFR (% Ctrl)
Give a bare numeral; the unit % Ctrl is implied.

Answered cases to consult:
| SMILES RECORD | % Ctrl, EGFR [% Ctrl] |
| --- | --- |
| Cc1nn(C)c2c1-c1ccc3c(c1)/C(=C/c1[nH]ccc1C(=O)N(C)CCCO2)C(=O)N3 | 61 |
| Cc1cc2c([nH]1)/C=C1\C(=O)Nc3ccc(cc31)-c1c(C)nn(C)c1COCCN(C)C2=O | 51 |
| CN1CCSCCOc2cc3c(cc2Cl)NC(=O)/C3=C\c2[nH]ccc2C1=O | 61 |

Here is the next item to consider.
Recorded % Ctrl, EGFR for `CN1CCOCCOc2cc3c(cc2Cl)NC(=O)/C3=C\c2[nH]ccc2C1=O` , please?
100

* * *

TARGET SYSTEM: kinases (Homo sapiens, UniProt P00519, H396P)
Construct: purchased Eurofins/DiscoveRx; host or cells: E. coli BL21-derived host (T7 phage display) for most kinases; HEK-293 for the rest
MEASUREMENT NOTES: KINOMEscan kinase binding assay (Eurofins/DiscoveRx), % Ctrl
CONDITION INFO: 1 μM; ABL1(H396P)-phosphorylated
The reader will find reported % Ctrl, ABL1(H396P)-phosphorylated values listed item by item below.
// return numeric value only (unit: % Ctrl, not printed)

| MOLECULE | TARGET SYSTEM | DISPLAY UNIT | % Ctrl, ABL1(H396P)-phosphorylated |
| --- | --- | --- | --- |
| Cc1cc2c([nH]1)/C=C1\C(=O)Nc3ccc(cc31)OCCOCCNC2=O [Ex. 129] | kinases (Homo sapiens, UniProt P00519, H396P) | % Ctrl | 93 |
| Cc1cc2c([nH]1)/C=C1\C(=O)Nc3ccc(cc31)-c1ccnn1CCNCCNC2=O [Ex. 43] | kinases (Homo sapiens, UniProt P00519, H396P) | % Ctrl | 89 |
| Cc1cc2c([nH]1)/C=C1\C(=O)Nc3cc(Cl)c(cc31)OCCO[C@@H](C(=O)NC1CCNCC1)CN(C)C2=O [Ex. 134] | kinases (Homo sapiens, UniProt P00519, H396P) | % Ctrl | 35 |
| Cc1cc2c([nH]1)/C=C1\C(=O)Nc3cnc(cc31)-c1cnn(C)c1COCCNC2=O [Ex.123] | kinases (Homo sapiens, UniProt P00519, H396P) | % Ctrl | 100 |
| Cc1cc2c([nH]1)/C=C1\C(=O)Nc3cc(Cl)c(cc31)OCCO[C@@H](C(=O)N[C@@H]1CCNC1)CN(C)C2=O [Ex. 136] | kinases (Homo sapiens, UniProt P00519, H396P) | % Ctrl | 22 |
| Cc1cc2c([nH]1)/C=C1\C(=O)Nc3ccc(cc31)-c1cnn(C)c1COCCN(C)C2=O [Ex. 124] | kinases (Homo sapiens, UniProt P00519, H396P) | % Ctrl | 0 |
| Cc1cc2c([nH]1)/C=C1\C(=O)Nc3ccc(cc31)-c1ccnn1CCOCCN(C)C2=O [Ex. 41] | kinases (Homo sapiens, UniProt P00519, H396P) | % Ctrl | 5 |

// switching to the query molecule
Give the measured % Ctrl, ABL1(H396P)-phosphorylated of Cc1cc2c([nH]1)/C=C1\C(=O)Nc3ccc(cc31)CN(C)C(=O)COCCNC2=O [Ex.111] .
61

* * *

TARGET SYSTEM: kinases (Homo sapiens, UniProt P10721, D816V)
Construct: purchased Eurofins/DiscoveRx; host or cells: E. coli BL21-derived host (T7 phage display) for most kinases; HEK-293 for the rest
Sequence (P10721 26-976 D816V): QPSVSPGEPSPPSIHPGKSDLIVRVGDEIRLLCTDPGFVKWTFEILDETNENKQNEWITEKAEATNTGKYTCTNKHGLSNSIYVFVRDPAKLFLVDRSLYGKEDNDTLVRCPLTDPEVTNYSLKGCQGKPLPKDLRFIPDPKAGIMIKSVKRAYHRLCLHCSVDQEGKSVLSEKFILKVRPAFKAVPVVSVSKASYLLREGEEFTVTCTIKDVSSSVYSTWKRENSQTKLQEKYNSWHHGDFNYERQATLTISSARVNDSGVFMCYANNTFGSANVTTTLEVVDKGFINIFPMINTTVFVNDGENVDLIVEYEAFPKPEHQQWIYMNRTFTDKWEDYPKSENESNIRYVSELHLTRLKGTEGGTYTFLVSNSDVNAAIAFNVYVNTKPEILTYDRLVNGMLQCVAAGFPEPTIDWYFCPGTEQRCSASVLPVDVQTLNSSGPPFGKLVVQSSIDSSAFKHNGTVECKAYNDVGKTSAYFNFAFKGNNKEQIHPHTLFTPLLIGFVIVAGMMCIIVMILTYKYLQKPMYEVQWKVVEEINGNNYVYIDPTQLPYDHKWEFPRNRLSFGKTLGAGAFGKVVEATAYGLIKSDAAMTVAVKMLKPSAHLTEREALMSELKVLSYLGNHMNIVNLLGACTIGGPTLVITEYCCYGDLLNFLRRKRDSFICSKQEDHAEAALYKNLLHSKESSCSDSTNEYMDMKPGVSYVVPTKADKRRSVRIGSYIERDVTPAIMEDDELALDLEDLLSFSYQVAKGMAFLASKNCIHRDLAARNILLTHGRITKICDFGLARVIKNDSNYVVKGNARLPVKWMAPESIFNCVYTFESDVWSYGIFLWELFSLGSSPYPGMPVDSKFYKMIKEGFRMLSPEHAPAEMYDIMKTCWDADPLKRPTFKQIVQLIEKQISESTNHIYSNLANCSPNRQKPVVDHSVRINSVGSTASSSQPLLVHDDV
MEASUREMENT NOTES: KINOMEscan kinase binding assay (Eurofins/DiscoveRx), % Ctrl
CONDITION INFO: target KIT(D816V); 1 μM
QUANTITY KIND: % Ctrl, KIT(D816V) (% Ctrl)
# number only, unit % Ctrl dropped from output

Examples with answers:
| COMPOUND | TARGET SYSTEM | DISPLAY UNIT | % Ctrl, KIT(D816V) |
| --- | --- | --- | --- |
| Cc1cc2c([nH]1)/C=C1\C(=O)Nc3cnc(cc31)-c1cn[nH]c1CNCCN(C)C2=O [Ex. 55] | kinases (Homo sapiens, UniProt P10721, D816V) | % Ctrl | 1.3 |
| CN1CCSCCOc2cc3c(cc2Cl)NC(=O)/C3=C\c2[nH]ccc2C1=O [Ex. 153] | kinases (Homo sapiens, UniProt P10721, D816V) | % Ctrl | 6.8 |

Query: % Ctrl, KIT(D816V); subject: Cc1nn(C)c2c1-c1ccc3c(c1)/C(=C/c1[nH]ccc1C(=O)N(C)CCCO2)C(=O)N3 [Ex. 150]
89

* * *

TARGET SYSTEM: kinases (Homo sapiens, UniProt P00519, F317I)
Construct: purchased Eurofins/DiscoveRx; host or cells: E. coli BL21-derived host (T7 phage display) for most kinases; HEK-293 for the rest
MEASUREMENT NOTES: KINOMEscan kinase binding assay (Eurofins/DiscoveRx), % Ctrl
CONDITION INFO: 1 μM; target ABL1(F317I)-nonphosphorylated
QUANTITY KIND: % Ctrl, ABL1(F317I)-nonphosphorylated (% Ctrl)
Number in % Ctrl, nothing else.

Worked set:
| SMILES RECORD | DISPLAY UNIT | EXPERIMENTAL RESULT |
| --- | --- | --- |
| Cc1cc2c([nH]1)/C=C1\C(=O)Nc3ccc(cc31)-c1c(noc1C(C)C)COCCN(C)C2=O | % Ctrl | 100 |
| CN1CCOc2cc3c(cc2Cl)NC(=O)/C3=C\c2[nH]ccc2C(=O)N(C)CC1 | % Ctrl | 5.7 |
| Cc1cc2c([nH]1)/C=C1\C(=O)Nc3cnc(cc31)-c1cnn(C)c1CN(C)CCN(C)C2=O | % Ctrl | 24 |
| Cc1cc2c([nH]1)/C=C1\C(=O)Nc3cc(Cl)c(cc31)SCCOCCN(C)C2=O | % Ctrl | 0.6 |

With those in mind, consider the next compound.
Recorded % Ctrl, ABL1(F317I)-nonphosphorylated of `Cc1cc2c([nH]1)/C=C1\C(=O)Nc3ccc(cc31)-c1cnn(C)c1OCCCN(C)C2=O` , please.
80

* * *

TARGET SYSTEM: kinases (Homo sapiens, UniProt P00519)
Construct: purchased Eurofins/DiscoveRx; host or cells: E. coli BL21-derived host (T7 phage display) for most kinases; HEK-293 for the rest
MEASUREMENT NOTES: KINOMEscan kinase binding assay (Eurofins/DiscoveRx), % Ctrl
CONDITION INFO: 1 μM; ABL1-nonphosphorylated
Here the recorded % Ctrl, ABL1-nonphosphorylated is given for each entry.
Kindly provide the numeric value in % Ctrl only, without the unit symbol.

| MOLECULE | DISPLAY UNIT | EXPERIMENTAL RESULT |
| --- | --- | --- |
| Cc1cc2c([nH]1)/C=C1\C(=O)Nc3ccc(cc31)-c1c(noc1C)COCCN(C)C2=O [Ex. 128] | % Ctrl | 60 |
| Cc1cc2c([nH]1)/C=C1\C(=O)Nc3cc(Cl)c(cc31)OCCOCCN(C)C2=O [Ex. 131] | % Ctrl | 0 |
| Cc1cc2c([nH]1)/C=C1\C(=O)Nc3ccc(cc31)-c1ccnn1CCNCCNC2=O [Ex. 43] | % Ctrl | 53 |

Let's switch to this molecule now.
So what % Ctrl, ABL1-nonphosphorylated did Cc1cc2c([nH]1)/C=C1\C(=O)Nc3ccc(cc31)-c1ccnn1CCOCCN(C)C2=O [Ex. 41] get with kinases (Homo sapiens, UniProt P00519)?
7.1

Provenance of the data: patent US20230257396A1
